# measurement target: UniProt:P08581
Where a name gives a salt, the structure may show the parent alone.
observation type: IC50

// query Give its IC50 value. Item: `Nc1ncc(-c2cnn(C3CCNCC3)c2)cc1-c1cc2c(-c3ccccc3)ccc(F)c2cn1`
// result 0.1 to 1 µM

// query Give its IC50 value. Item: Nc1ncc(-c2cnn(C3CCCCC3)c2)cc1-c1nc2ccccc2s1 [Example 113, bis-hydrochloride]
// result 0.1 to 1 µM

// query Give its IC50 value. Item: `NCC#Cc1cnc(N)c(-c2nc3ccccc3s2)c1`
// result 1 to 20 µM

// query Give its IC50 value. Item: `Nc1ncc(-c2ccc(C(=O)NCc3ccco3)cc2)cc1-c1nc2ccccc2s1`
// result 1 to 20 µM

// query Give its IC50 value. Item: NC(=O)N1CCC(n2cc(-c3cnc(N)c(-c4nc5ccccc5s4)c3)cn2)CC1 [Example 116, bis-hydrochloride]
// result 0.1 to 1 µM

// query Give its IC50 value. Item: `NC(=O)C1CCN(C(=O)c2cccc(-c3cnc(N)c(-c4nc5ccccc5s4)c3)c2)CC1`
// result 0.1 to 1 µM

// query Give its IC50 value. Item: CC(C)n1cc(-c2cnc(N)c(-c3cc4c(Cl)ccc(F)c4cn3)c2)cn1 [Example 66, bis-hydrochloride]
// result 1 to 20 µM

// query Give its IC50 value. Item: Nc1ncc(-c2cnn(C3CCNCC3)c2)cc1-c1cc2cc(F)cc(F)c2cn1 [Example 46, trihydrochloride salt]
// result 0.1 to 1 µM

====

Endpoint: pIC50. System: MET (human) (Homo sapiens). Items follow.
Sequence (P08581 25-1390): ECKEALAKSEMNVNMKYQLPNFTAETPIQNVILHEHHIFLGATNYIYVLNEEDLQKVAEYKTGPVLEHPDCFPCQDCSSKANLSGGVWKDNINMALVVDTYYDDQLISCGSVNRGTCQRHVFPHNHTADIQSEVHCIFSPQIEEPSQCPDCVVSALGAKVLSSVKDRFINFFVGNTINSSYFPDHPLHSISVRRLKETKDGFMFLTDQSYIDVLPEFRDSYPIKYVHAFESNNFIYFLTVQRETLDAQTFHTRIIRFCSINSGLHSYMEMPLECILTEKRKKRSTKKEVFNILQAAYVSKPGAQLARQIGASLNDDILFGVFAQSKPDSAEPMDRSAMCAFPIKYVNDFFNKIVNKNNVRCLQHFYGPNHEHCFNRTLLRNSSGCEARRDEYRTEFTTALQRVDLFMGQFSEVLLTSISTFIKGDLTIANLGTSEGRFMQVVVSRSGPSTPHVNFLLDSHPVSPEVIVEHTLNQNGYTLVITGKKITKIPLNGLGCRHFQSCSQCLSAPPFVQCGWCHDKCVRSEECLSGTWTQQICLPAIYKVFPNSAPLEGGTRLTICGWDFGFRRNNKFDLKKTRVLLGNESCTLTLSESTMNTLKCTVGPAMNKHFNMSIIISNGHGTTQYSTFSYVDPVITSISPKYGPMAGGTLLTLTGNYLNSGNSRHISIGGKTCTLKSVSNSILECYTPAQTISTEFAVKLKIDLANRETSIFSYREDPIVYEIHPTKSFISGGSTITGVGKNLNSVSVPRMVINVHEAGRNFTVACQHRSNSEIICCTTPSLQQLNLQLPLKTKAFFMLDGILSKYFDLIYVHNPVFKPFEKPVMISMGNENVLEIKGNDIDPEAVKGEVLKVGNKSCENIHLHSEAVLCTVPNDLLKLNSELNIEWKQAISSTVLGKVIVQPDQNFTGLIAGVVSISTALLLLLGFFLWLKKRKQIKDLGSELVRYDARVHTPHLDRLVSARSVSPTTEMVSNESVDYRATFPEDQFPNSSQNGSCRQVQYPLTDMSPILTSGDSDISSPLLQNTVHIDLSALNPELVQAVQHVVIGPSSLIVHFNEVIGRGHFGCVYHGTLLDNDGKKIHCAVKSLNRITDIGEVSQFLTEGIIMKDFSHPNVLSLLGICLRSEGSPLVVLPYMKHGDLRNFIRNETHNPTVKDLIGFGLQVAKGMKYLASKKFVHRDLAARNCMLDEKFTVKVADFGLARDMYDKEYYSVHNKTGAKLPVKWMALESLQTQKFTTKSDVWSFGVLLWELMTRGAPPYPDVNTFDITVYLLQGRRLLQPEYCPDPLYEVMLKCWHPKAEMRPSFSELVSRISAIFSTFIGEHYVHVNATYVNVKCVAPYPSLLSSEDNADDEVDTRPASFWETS
pIC50: −log10 of the molar value. Counter-ions that a name gives are not always drawn.

// query Any idea what pIC50 came out for `Nc1ncc(-c2ccc(OCC(=O)N3CCOCC3)cc2)cc1-c1nc2ccccc2s1` on MET (human) (Homo sapiens)?
// result 4.70 to 6.00

// query Any idea what pIC50 came out for Nc1ncc(-c2cnn(C3CCNCC3)c2)cc1-c1cc2c(Br)cccc2cn1 [Example 22, trihydrochloride salt] on MET (human) (Homo sapiens)?
// result 6.00 to 7.00

// query Any idea what pIC50 came out for `Nc1ncc(-c2cnn(C3CCN(CC(=O)N4CCC(O)CC4)CC3)c2)cc1-c1nc2ccccc2s1` on MET (human) (Homo sapiens)?
// result ≥ 7.00

// query Any idea what pIC50 came out for `Cc1cccc2sc(-c3cc(-c4cnn(C5CCNCC5)c4)cnc3N)nc12` on MET (human) (Homo sapiens)?
// result 6.00 to 7.00

// query Any idea what pIC50 came out for CN(C)C(=O)N1CCC(n2cc(-c3cnc(N)c(-c4cc5c(Cl)ccc(F)c5cn4)c3)cn2)CC1 [Example 67, bis-hydrochloride] on MET (human) (Homo sapiens)?
// result 6.00 to 7.00

// query Any idea what pIC50 came out for `COCCN1CCC(n2cc(-c3cnc(N)c(-c4cc5c(Cl)ccc(F)c5cn4)c3)cn2)CC1` on MET (human) (Homo sapiens)?
// result 6.00 to 7.00

// query Any idea what pIC50 came out for `CN(C)C(=O)CN1CCC(n2cc(-c3cnc(N)c(-c4nc5ccccc5s4)c3)cn2)CC1` on MET (human) (Homo sapiens)?
// result 6.00 to 7.00

====

pIC50: −log10 of the molar value. Where a name gives a salt, the structure may show the parent alone.
observation type: pIC50

// query Any idea what pIC50 came out for Nc1ncc(-c2cnn(C3CCNCC3)c2)cc1-c1oc2ccccc2c1Br [Example 95, trifluoroacetate] on RON (human) (Homo sapiens)?
// result 4.70 to 6.00

// query Any idea what pIC50 came out for Nc1ncc(-c2cnn(C3CC4CCC(C3)N4)c2)cc1-c1nc2ccccc2s1 (stereo not drawn) [Example 110] on RON (human) (Homo sapiens)?
// result 6.00 to 7.00

// query Any idea what pIC50 came out for COCCN(CCOC)C(=O)CN1CCC(n2cc(-c3cnc(N)c(-c4nc5ccccc5s4)c3)cn2)CC1 [Example 173] on RON (human) (Homo sapiens)?
// result 6.00 to 7.00

// query Any idea what pIC50 came out for COc1ccc2cc(-c3cc(-c4cnn(C5CCNCC5)c4)cnc3N)ncc2c1 [Example 44, trihydrochloride] on RON (human) (Homo sapiens)?
// result 4.70 to 6.00

// query Any idea what pIC50 came out for Nc1ncc(-c2cnn(C3CCNCC3)c2)cc1-c1nc2cc(C(F)(F)F)ccc2s1 [Example 261] on RON (human) (Homo sapiens)?
// result 6.00 to 7.00

// query Any idea what pIC50 came out for Nc1ncc(-c2cnn(C3CCNCC3)c2)cc1-c1cc2c(Cl)ccc(Cl)c2cn1 [Example 9, trihydrochloride] on RON (human) (Homo sapiens)?
// result 6.00 to 7.00

// query Any idea what pIC50 came out for Nc1ncc(-c2cnn(C3CCNCC3)c2)cc1-c1nc2c(s1)CCCCC2 [Example 299] on RON (human) (Homo sapiens)?
// result 6.00 to 7.00

// query Any idea what pIC50 came out for Nc1ncc(-c2cnn(C3CCNCC3)c2)cc1-c1cc2cc(F)ccc2cn1 [Example 35] on RON (human) (Homo sapiens)?
// result 4.70 to 6.00

// query Any idea what pIC50 came out for COc1cccc2nc(-c3cc(-c4cnn(C5CCNCC5)c4)cnc3N)sc12 [Example 264] on RON (human) (Homo sapiens)?
// result 6.00 to 7.00

// query Any idea what pIC50 came out for Nc1ncc(-c2cnn([C@@H]3CNC(CO)C3)c2)cc1-c1nc2ccccc2s1 (mixture of isomers) [Example 180] on RON (human) (Homo sapiens)?
// result 6.00 to 7.00

// query Any idea what pIC50 came out for Nc1ncc(-c2cccc(C(=O)N3CCCC(O)C3)c2)cc1-c1nc2ccccc2s1 (stereo not drawn) [Example 213] on RON (human) (Homo sapiens)?
// result 4.70 to 6.00

// query Any idea what pIC50 came out for Nc1ncc(-c2cnn(C3CCNCC3)c2)cc1-c1nc2ccc(Cl)cc2s1 [Example 253] on RON (human) (Homo sapiens)?
// result 6.00 to 7.00
